test system: CAKI-1 renal; assay: NCI-60 one-dose screen, 48 h (100 = growth as untreated, 0 = no growth, -100 = all killed); conditions: 10 µM unless noted
Compounds without any hit were thinned out: in the full panel of roughly 83,000, 20% have a hit.

>  <item smiles>
COc1cc(NC(=O)C2=C(C)NC(C)=C(C(=O)Nc3cc(OC)c(Cl)cc3OC)C2c2cccc([N+](=O)[O-])c2)c(OC)cc1Cl

>  <growth, %>
21.4

$$$$
>  <item smiles>
CCCCCCCCCCCCCCCCSC(=NCC)NCC

>  <growth, %>
-25.9

$$$$
>  <item smiles>
CN(C)CC(C)(CN(C)C)C(=O)/C=C/c1c(Cl)cccc1Cl

>  <growth, %>
52.7

$$$$
>  <item smiles>
COc1cc(-c2ccc(-[n+]3nc(-c4ccc([N+](=O)[O-])cc4)nn3-c3ccc([N+](=O)[O-])cc3)c(OC)c2)ccc1-[n+]1nc(-c2ccc([N+](=O)[O-])cc2)nn1-c1ccc([N+](=O)[O-])cc1

>  <growth, %>
-9.54

$$$$
